Tested on: MS2 coat protein
Assay: apparent KD of MS2 coat protein; designed switch direction (-1 OFF switch, 1 ON switch): -1; higher = weaker reporter binding
Settings: input ligand: none
As shown below, each of these sequences has a reported apparent KD of MS2 coat protein value.
Output spec: scalar in µM, unitless text.

Input: Which apparent KD of MS2 coat protein is listed for ACAUGUGUUGUAGGAUAUAGGACACAUGAGGAUCACCCAUGUGGUUUCAUGUCUAACCAAGCGUCCUAGAAGGACGGCAACAUG [Ex NG2 #27] (Eterna round: R96, puzzle: Exclusion NG 2) ?
Output: 0.0194

Input: Let us now turn to UACAUGAGGAUCACCCAUGUUUUGUCGUGUAUGGUAUUUAUCUAGGAUAUCAAUUUGUUUAUUUAUGAGAAGGAGAAUAUUAAU [JMF's solution 16] (Eterna round: R96, puzzle: Exclusion NG 3)
Output: 0.041

---
Input: Which apparent KD of MS2 coat protein is listed for ACAUGUAAUGCAGGAUAUCGGACACAUGAGGAUCACCCAUGUGACCAGAGGAAUUGCUAAGAGUCUGAGAAGGGUAUGUACAUG [Ex NG2 #52] (Eterna round: R96, puzzle: Exclusion NG 2) ?
Output: 0.019

###

System: MS2 coat protein
Assay: apparent KD of MS2 coat protein; designed switch direction (-1 OFF switch, 1 ON switch): -1; higher = weaker reporter binding
Conditions: input ligand: FMN 200 uM
As shown below, each of these sequences has a reported apparent KD of MS2 coat protein value.
Output spec: scalar in nM, unitless text.

Look over these answered cases.
Input: Which apparent KD of MS2 coat protein is listed for CCGGAACAUGAGGAUCACCCAUGUCAGGAUAUCUCAAAAUCGUCGAUAGACGAUAACAAGAGAAGGGACACCGG [Mat - Exclusion 1 - Eli Mod - D29] (Eterna round: R97, puzzle: Exclusion 1) ?
Output: 23.4

Input: Let us now turn to CCCAGUUAUGAAGGAUAUUGUACAUGAGGAUCACCCAUGUAAUAAAUGAGGAUUUCGGGUGUCUACAAGAAGGUCAGGAUAGGC [Ostracism 14 - Jieux - Exclusion NG 2] (Eterna round: R96, puzzle: Exclusion NG 2)
Output: 82.8

Input: Let us now turn to ACUGAACAUGAGGAUCACCCAUGUAAGGAUAUGCCACACGGGCUACAUAGCCAUCAAAGUAGAAGGUGCUGGGA [Eternabot (Original) Solution 15] (Eterna round: R97, puzzle: Exclusion 1)
Output: 20.3

Input: Let us now turn to CGUACUAACACGAAAGUGUUAGUACAAUAAGCUUGUGAAACAUGAGGAUCACCCAUGUCCUCAUAAGCUCGUCUUAU [salish99_TOv2_r3_007] (Eterna round: R96, puzzle: Sensor v3, turn-off variant 2)
Output: 15.6

Input: Let us now turn to AUUAGUAAUAAGGAUAUCACUAGCUGCGGCUAGUGAGAAGGUAUUACAUGAGGAUCACCCAUGUGAUCAAUUAA [E6/3-A3] (Eterna round: R97, puzzle: Exclusion 6)
Output: 912

Input: Let us now turn to GUCGUGUUAGGAUAUGGCAACUACUAAUAAAUUAGUAGUUGUUAGAAGGAACAUGAGGAUCACCCAUGUAUGAC [-23, -22.5 kcal, A 34%] (Eterna round: R97, puzzle: Exclusion 4)
Output: 122

Input: Let us now turn to UGUUGUUACGUAGGAUAUCCACCAACAGGUGGAAGGAUAUGGAAACAGAAGGUUCGCCAACAGGCGGAGAAGGACGUGUUAACU [pwkr exNG2 2xF7 2xFMN.23] (Eterna round: R96, puzzle: Exclusion NG 2)
Output: 2.79

Input: Let us now turn to GUCAUCAAACAUGGGAUCAACAUGAGGAUCACCCAUGUUGACAAGUUUUUUGCUCGUCUUAUAAUAAGUUUGAUGAC [Antenna 9 - Jieux - Sensor, turn-off variant 1] (Eterna round: R97, puzzle: Sensor, turn-off variant 1)
Output: 15.5

---
Input: Which apparent KD of MS2 coat protein is listed for AGCAAGCUUUAAAGAUCCUACAUGAGGAUCACCCAUGUGCUCGUCUUAUAACGUACUGUGACGAAAGUCACGGUACG [JL TOV1 3.33] (Eterna round: R97, puzzle: Sensor, turn-off variant 1) ?
Output: 357

The origin of these recorded values is the supplement of paper PMC9170038.
